The entries below come with measured percent inhibition of PKK mRNA, 5.00 μM values attached.
- System: human PKK mRNA
- Test Summary: Dose-dependent antisense inhibition of human PKK in HepaRG cells, 0.19-5.00 uM (Example 5)
- Type: cell-based
- Experimental Parameters: HepaRG cells, 5.00 μM antisense oligonucleotide
Strand notation (5' to 3'): a small letter for the sugar, then the base; units joined by * are phosphorothioate-linked, units joined directly phosphodiester-linked; [ ] holds rarer units or linkages, { } end groups; capitals alone tell only the bases. e = 2'-O-(2-methoxyethyl) (MOE); [5mC] = 5-methylcytosine; d = 2'-deoxy (DNA)
Express the reported value numerically, then name its unit.

As a guide, the following entries are already answered.
Substance: 546986 (e[5mC]*eA*eG*eG*eA*dT*dA*dG*dA*dA*d[5mC]*dT*dG*dA*dT*eG*eG*eT*e[5mC]*e[5mC]; antisense) [compound 546986]
Experimental Value: 86%

Substance: 548770 (antisense eT*eA*eA*e[5mC]*dA*dG*dT*dA*dT*d[5mC]*dA*d[5mC]*dT*eG*eT*e[5mC]*e[5mC]) [compound 548770]
Experimental Value: 92%

Task: Which percent inhibition of PKK mRNA, 5.00 μM is reported for this substance? 547632 (antisense eT*e[5mC]*eA*e[5mC]*eT*dG*dT*d[5mC]*d[5mC]*dT*dA*dT*dA*dT*d[5mC]*eA*e[5mC]*eT*e[5mC]*eT) [compound 547632]
Output: 91%

Task: Same again, this time with 547294 (antisense e[5mC]*eT*e[5mC]*eA*eT*d[5mC]*dT*dG*dG*d[5mC]*dA*dG*dT*dA*dT*eT*eG*eG*eG*e[5mC]) [compound 547294]
Output: 91%

Task: Another: 546889 (eG*eT*e[5mC]*e[5mC]*eT*dA*dT*dG*dT*d[5mC]*dA*d[5mC]*dT*dG*dT*eA*e[5mC]*e[5mC]*eT*eA; antisense) [compound 546889]
Output: 92%
